system: SARS-COV-2; assay: microbe, parasite or virus in culture; type: cell-based; details: Severe acute respiratory syndrome coronavirus 2; Vero cells, 24 hours infection; read-out: SARS-COV-2 inhibition (IC50)
measure.name: IC50

Here is how some compounds turned out for IC50.
smiles.code | result
CCN(CC)CCNc1c2c(cc3cc(OC)c(OC)cc13)COC2=O | > 50 µM
COc1cc2cc3c(c(-c4cc(C)nc5c(OC)cccc45)c2cc1OC)C(=O)OC3 | > 50 µM

Turning to the following compound.
Query: I would be grateful if you could share the reported IC50 for COc1cc2cc3c(c(N4CCN(c5cc(Cl)nc(SC)n5)CC4)c2cc1OC)C(=O)OC3 .
Reply: > 50 µM
